The origin of these recorded values is ChEMBL document CHEMBL1122355.

- Tested on: Echinochloa crus-galli
- protocol.notes: Herbicidal activity against barnyard grass (Echinochloa crusgalli L. Beauv.) as the dose required for 50% control
- Type: functional
Item-by-item account of -Log ED50
Reply numerically in M acre-1, unit not repeated.

Before answering, review these 3 worked examples.
| compound | unit.abbreviation | -Log ED50 |
| --- | --- | --- |
| Cc1ccc(C(C)C)cc1C(C)S(=O)(=O)c1cccc[n+]1[O-] (stereo not drawn) | M acre-1 | 0.89 |
| CC(c1ccc([N+](=O)[O-])cc1)S(=O)(=O)c1cccc[n+]1[O-] (stereo not drawn) | M acre-1 | 0.43 |
| O=S(=O)(Cc1ccccc1)c1cccc[n+]1[O-] | M acre-1 | 0.29 |

Q: -Log ED50 for COc1cc(CS(=O)(=O)c2cccc[n+]2[O-])cc(OC)c1OC ?
A: -0.77

Q: -Log ED50 for CC(C)c1ccc(C(C)C)c(C(C)S(=O)(=O)c2cccc[n+]2[O-])c1 (stereo not drawn) ?
A: 0.78

Q: -Log ED50 for N#Cc1ccccc1CS(=O)(=O)c1cccc[n+]1[O-] ?
A: 0.18

Q: -Log ED50 for O=S(=O)(Cc1ccccc1Cl)c1cccc[n+]1[O-] ?
A: 0.85
